Measured TGI values are reported for all entries that follow.
Tested on: U251 CNS
Assay: NCI tumour cell line growth inhibition, 48 h
Measured Property: TGI (µM)

[[record]]
molecule = "CCOC(=O)C1Sc2ccccc2N=C1C (stereo not given)"
reported_relation = ">"
reported = 100

[[record]]
molecule = "N#CC(C(=O)CCC(=O)Nc1ccc(Cl)c(Cl)c1)c1ccccc1 (stereo not given)"
reported_relation = ">"
reported = 100

[[record]]
molecule = "NC(=S)N/N=C1\\c2cc(Cl)ccc2-c2c1cc(Cl)cc2[N+](=O)[O-]"
reported_relation = "="
reported = 14.9

[[record]]
molecule = "O=C1c2cccc3cc([N+](=O)[O-])cc(c23)C(=O)N1Nc1ccc([N+](=O)[O-])cc1[N+](=O)[O-]"
reported_relation = "="
reported = 29.3

[[record]]
molecule = "O=C1c2sc(-c3ccc(Cl)cc3)cc2-n2cccc21"
reported_relation = ">"
reported = 100

[[record]]
molecule = "COCCOCOC(CCCCO)c1cc(C)c(O[Si](C)(C)C(C)(C)C)c(C)c1 (stereo not given)"
reported_relation = "="
reported = 23.6

[[record]]
molecule = "Cc1ccc(S(=O)(=O)N2C3C=CC(C3)[C@@H]2C(Cl)(Cl)Cl)cc1 (stereo not given in full)"
reported_relation = "="
reported = 40.1

[[record]]
molecule = "CCOC(=O)c1cn2c(n1)sc1cc(F)ccc12"
reported_relation = ">"
reported = 100

[[record]]
molecule = "O=C1/C(=C\\c2ccc(Cl)cc2Cl)Sc2scc(-c3ccc(O)c(O)c3)[n+]21"
reported_relation = "="
reported = 25.5

[[record]]
molecule = "COc1ccc2c(c1)[n+]([O-])c(C(N)=O)c(N)[n+]2[O-]"
reported_relation = ">"
reported = 100


---

Tested on: LXFL 529 NSCLC
Experiment: NCI tumour cell line growth inhibition, 48 h
Measured Property: TGI

[[record]]
compound = "CCOC(=O)C1Sc2ccccc2N=C1C (stereo unspecified)"
measured_on = "LXFL 529 NSCLC"
measured_property = "TGI"
reported = "> 100 µM"

[[record]]
compound = "O=c1cc(-c2ccc3c(c2)OCO3)[nH]c2cc3c(cc12)OCO3"
measured_on = "LXFL 529 NSCLC"
measured_property = "TGI"
reported = "> 100 µM"

[[record]]
compound = "O=C1C(Br)=C(Br)C(=O)c2ccc(=O)ccc21"
measured_on = "LXFL 529 NSCLC"
measured_property = "TGI"
reported = "31.7 µM"

[[record]]
compound = "COc1ccc2c(c1)[n+]([O-])c(C(N)=O)c(N)[n+]2[O-]"
measured_on = "LXFL 529 NSCLC"
measured_property = "TGI"
reported = "> 100 µM"

[[record]]
compound = "C[C@@]1(O)CC[C@]2(C)C3CCCC3[C@H]12 (stereo partly specified)"
measured_on = "LXFL 529 NSCLC"
measured_property = "TGI"
reported = "> 100 µM"

[[record]]
compound = "CN(C)CC1CCCC/C1=N/O (stereo unspecified)"
measured_on = "LXFL 529 NSCLC"
measured_property = "TGI"
reported = "> 100 µM"


---

System: UACC-257 melanoma
Assay: NCI tumour cell line growth inhibition, 48 h; in the data active means GI50 below about 0.43 µM; inactive means the rest
Outcomes: active, inactive

[[record]]
compound = "Cc1[cH-]c(=O)n(-c2ccccc2)n1.[Au+].[Au].c1ccc([PH+](c2ccccc2)c2ccccc2)cc1.c1ccc([PH+](c2ccccc2)c2ccccc2)cc1"
class = "inactive"

[[record]]
compound = "CC1(C)[C@@H](NOCCCN)CC[C@]2(C)[C@H]3C(=O)C=C4[C@@H]5C[C@](C)(C(=O)O)CC[C@]5(C)CC[C@@]4(C)[C@]3(C)CC[C@@H]12"
class = "inactive"

[[record]]
compound = "COC(=O)c1cc2oc(/C=C3/SC(=S)N(NC(C)=O)C3=O)cc2n1C"
class = "inactive"

[[record]]
compound = "CC(C)[C@@H]1NC(=O)[C@]2(C)CSC(=N2)c2ccnc(c2)CNC(=O)C[C@@H](/C=C/CCS)OC1=O"
class = "active"

[[record]]
compound = "COc1cc(/C=C2\\CN(S(=O)(=O)c3ccc(C)cc3)C/C(=C\\c3cc(CN4CCCC4)c(O)c(OC)c3)C2=O)cc(CN2CCCC2)c1O"
class = "inactive"

[[record]]
compound = "COC(=O)/C=C/c1cc(OC(C)=O)c2c(c1)[C@@H](C(=O)OC)[C@H](c1ccc(OC(C)=O)c(OC(C)=O)c1)O2"
class = "inactive"

[[record]]
compound = "CN1CCN(C(=O)COc2ccc(C34CC5CC(CC(C5)C3)C4)cc2)CC1"
class = "inactive"

[[record]]
compound = "CC[C@@H](c1ccc(O)c(O)c1)[C@@H](CC)c1ccc(O)c(O)c1"
class = "inactive"

[[record]]
compound = "c1ccc(Nc2ncc(-c3ccccc3)o2)cc1"
class = "inactive"

[[record]]
compound = "COc1ccc(C(c2cc(OC)c(OC)c(OC)c2)n2cncn2)cc1O (stereo not drawn)"
class = "inactive"

[[record]]
compound = "OC(c1cc(C(F)(F)F)nc2c(C(F)(F)F)cccc12)C1CCCCN1 (stereo not drawn)"
class = "inactive"

[[record]]
compound = "O=C1OCC2=C1C(c1cccc(Br)c1)c1cc3c(cc1N2CCO)OCCO3 (stereo not drawn)"
class = "active"

[[record]]
compound = "CCCCCCOc1ccc(/C=N/Nc2cc(C)nc3ccc(Cl)cc23)cc1"
class = "inactive"

[[record]]
compound = "O=C1c2c(F)c(F)c(F)c(F)c2C(=O)N1c1ccc(F)cc1F"
class = "inactive"

[[record]]
compound = "COc1ccc2ncnc(Nc3ccc(OCc4ccccc4)cc3)c2c1"
class = "inactive"

[[record]]
compound = "Cc1ccc(NC2=C3CCCCC3OC2=O)cc1 (stereo not drawn)"
class = "inactive"

[[record]]
compound = "CC(=C(c1ccc(OCCN2CCCCC2)cc1)c1ccc(OCCN2CCCCC2)cc1)c1ccc(Cl)cc1"
class = "inactive"

[[record]]
compound = "Cn1cc(-c2cc3c(N4CCN(c5ncc([C@@](C)(N)c6ccc(F)cc6)cn5)CC4)ncnn3c2)cn1"
class = "inactive"


---

Each item that follows carries a reported TGI.
Tested on: NCI-H23 lung
Assay: NCI tumour cell line growth inhibition, 48 h
Measured Property: TGI

[[record]]
molecule = "CC(=O)OCCOCNC(=S)N/N=C/c1ccc([N+](=O)[O-])o1"
reported = "> 100 µM"

[[record]]
molecule = "CO[C@](C(=O)OC[C@H]1[C@@H](COC(C)=O)[C@@H]2O[C@H]1c1cc3c(cc12)OCO3)(c1ccccc1)C(F)(F)F"
reported = "> 100 µM"

[[record]]
molecule = "CCCCCCc1cc2cc(-c3cn4ccsc4n3)c(=O)oc2cc1O"
reported = "> 100 µM"

[[record]]
molecule = "CCCC/C=C/C=C/C=C/CCCCCCCC(=O)OCC(COC(=O)CCCCCCC/C=C/C1C=CC(CCCC)C(C(=O)O)C1C(=O)O)OC(=O)CCCCCCC/C=C/C=C/C=C/CCCC (centres undefined) (tested in a mixture with another compound)"
reported = "40.3 µM"

[[record]]
molecule = "O=C1NC(=NCc2ccccc2)S/C1=C\\c1ccc2ncccc2c1"
reported = "> 25 µM"

[[record]]
molecule = "O=C(NC1C=CCC2C(=O)N(c3ccccc3)C(=O)C12)OCc1ccccc1 (centres undefined)"
reported = "> 100 µM"

[[record]]
molecule = "COc1cc2c(cc1OC)-c1cc(OC)c(OC)cc1C(CN(C)C)C2 (centres undefined)"
reported = "> 10 µM"

[[record]]
molecule = "COCOC1/C=C/CCCCC(=O)C(C)C#CC1 (centres undefined)"
reported = "16.3 µM"

[[record]]
molecule = "CN(C)CC1CCC/C1=N/OC(=O)c1ccccc1 (centres undefined)"
reported = "> 100 µM"

[[record]]
molecule = "N#CC(C(=O)CCC(=O)Nc1ccc(Cl)c(Cl)c1)c1ccccc1 (centres undefined)"
reported = "> 100 µM"

[[record]]
molecule = "Cc1nc(-c2nc(C)c(C(=O)NNC(=O)C[n+]3ccccc3)s2)sc1C(=O)NNC(=O)C[n+]1ccccc1"
reported = "> 100 µM"

[[record]]
molecule = "O=C(NC1CCCCC1)NS(=O)(=O)c1ccc(N2N=C3c4ccccc4CC3C2c2ccc(Cl)cc2)cc1 (centres undefined)"
reported = "36.2 µM"

[[record]]
molecule = "O=c1[nH]c2cc(Cl)ccc2nc1/C(=N\\Nc1ccccc1)C(O)c1ccc(Cl)c(Cl)c1 (centres undefined)"
reported = "> 100 µM"

[[record]]
molecule = "O=C1NC2(CCN(CCc3ccccc3)CC2)Oc2ccccc21"
reported = "> 100 µM"

[[record]]
molecule = "O=C1OCC2=C1C(c1cccc(Br)c1)c1cc3c(cc1N2CCO)OCCO3 (centres undefined)"
reported = "> 44.5 µM"

[[record]]
molecule = "Cc1ccc(S(=O)(=O)N2C3C=CC(C3)[C@@H]2C(Cl)(Cl)Cl)cc1 (some centres undefined)"
reported = "> 100 µM"

[[record]]
molecule = "C=C1C(=O)O[C@@H]2/C=C(C)/C=C\\[C@@H]3O[C@@]3(C)C[C@@H](O)C12 (some centres undefined)"
reported = "33.3 µM"

[[record]]
molecule = "CCCCCCCCCCCCNC(=S)OC"
reported = "34 µM"

[[record]]
molecule = "CC(=O)Nc1cc2ccc(=O)oc2cc1Cl"
reported = "> 100 µM"

[[record]]
molecule = "COc1ccc(C(c2cc(OC)c(OC)c(OC)c2)n2cncn2)cc1O (centres undefined)"
reported = "> 100 µM"

[[record]]
molecule = "NC(N)=NS(=O)(=O)c1ccc(N=Nc2c(O)c(C(=O)O)cc3ccccc23)cc1"
reported = "> 100 µM"

[[record]]
molecule = "Cc1ccc(Nc2nc(NNC(=O)Cc3ccccc3)nc(NNC(=O)c3ccncc3)n2)cc1"
reported = "> 10 µM"

[[record]]
molecule = "CN1C(=O)C(=O)N2c3ccc(Cl)cc3C3(c4ccccc4)N=CC12O3 (centres undefined)"
reported = "15.5 µM"

[[record]]
molecule = "CN1CCN(C(=O)COc2ccc(C34CC5CC(CC(C5)C3)C4)cc2)CC1"
reported = "36.7 µM"

[[record]]
molecule = "COC(=O)c1cccc(C)c1C1CN=NC12Cc1cc(C)cc(C)c1C2=O (centres undefined)"
reported = "> 100 µM"

[[record]]
molecule = "O=C1SC(SCc2ccccc2)=NC12CC2c1ccccc1 (centres undefined)"
reported = "42 µM"

[[record]]
molecule = "C[C@]12[C@@H]3CC[C@H]1[C@@H](O)C(=O)N2CC3"
reported = "> 100 µM"

[[record]]
molecule = "Nc1nc(Cl)cc(OCC2(CO)CC=CC2)n1"
reported = "> 100 µM"

[[record]]
molecule = "CCOC(=O)/C(=C/c1ccc(OC)cc1)N(CC)CC"
reported = "> 100 µM"

[[record]]
molecule = "COC(=O)[C@]12CC[C@@H](C)[C@H](C)[C@@H]1C1=CC[C@@H]3[C@@]4(C)C[C@@H](O)[C@H](O)[C@@](C)(CO)[C@@H]4[C@H](O)C[C@@]3(C)[C@]1(C)CC2"
reported = "36.6 µM"

[[record]]
molecule = "O=C1C(C(Nc2ccccc2)c2ccccc2)=C([O-])c2ccccc21.O=C1C(C(Nc2ccccc2)c2ccccc2)=C([O-])c2ccccc21.[Cu+2] (centres undefined)"
reported = "> 100 µM"

[[record]]
molecule = "O=C1c2cc3c(cc2CC12Cc1ccc4c(c1C2=O)CCC4)CCCC3 (centres undefined)"
reported = "> 100 µM"

[[record]]
molecule = "CC1=C/C(=N\\NC(N)=S)C(C(O)(C(F)(F)F)C(F)(F)F)C(C)(C)C1 (centres undefined)"
reported = "> 10 µM"

[[record]]
molecule = "COc1ccc(C(SCCO)(c2ccccc2)c2ccc(OC)cc2)cc1"
reported = "38.1 µM"

[[record]]
molecule = "CCOc1ccc(NC2=CC(=O)C(=O)c3ccccc32)cc1"
reported = "3.93 µM"

[[record]]
molecule = "O=c1[nH]c(-c2ccccc2)nc2cc(Cl)ccc12"
reported = "> 100 µM"

[[record]]
molecule = "Cc1ccc(C(=O)OC(C(=O)O)C(OC(=O)c2ccc(C)cc2)C(=O)O)cc1 (centres undefined) (tested in a mixture with another compound)"
reported = "12.8 µM"

[[record]]
molecule = "C=CCNC(=S)N/C=C(\\C#N)C(N)=O"
reported = "> 100 µM"

[[record]]
molecule = "C/C(CN1C(=O)c2ccccc2C1=O)=N\\NS(=O)(=O)c1ccc(Cl)cc1"
reported = "> 100 µM"

